- experimental_system: T1, cyno TIGIT on cells (cynomolgus macaque)
- T1 construct: whole, on cells; also called Expi293 cyno TIGIT over-expressing cells
- protocol_description: flow cytometry of fab; MFI on cyno TIGIT over-expressing Expi293 / MFI on parental Expi293

binder	MFIr (OE/Par) cTIGIT
CPA.9.101 (fab) (Fab, V domains shown, variant of CPA.9.059 screened as fab) VH: EVQLVETGGGLIQPGGSLRLSCAASGFTVSSNYMSWVRQAPGKGLEWVSVIYSGGSTYYADSVKGRFTISRDNSKNTLYLQMNSLRAEDTAVYYCARGAPLFGQYPYWGQGTLVTVSS VL: DIQMTQSPSSLSASVGDRVTITCRASHAIASLFSWYQQKPGKAPKLLIYAASTLQTGVPSRFSGSASGTEFTLTISSLQPEDFATYYCLQLDSFPTWTFGQGTKVEIK	22
CPA.9.086 (fab) (Fab, V domains shown, variant of CPA.9.027 screened as fab) VH: EVQLVETGGGLIQPGRSLRLSCAASGFTFSSYAMHWVRQAPGKGLEWVAVISYAGEVKYYADSVKGRFTISRDNSKNTLYLQMNSLRAEDTAVYYCARDPLPLHYYGMDVWGQGTTVTVSS VL: QSALTQPRSASGNPGQRVTISCSGSSSNMGRRPVNWYQQIPGTAPKLLIYSQNQRPSGVPDRFSGSQSGTSASLTISGLQSEDEAEYFCAVWDDIGRVLQLGGGTQLAVLG	34
CPA.9.103 (fab) (Fab, V domains shown, variant of CPA.9.059 screened as fab) VH: EVQLVETGGGLIQPGGSLRLSCAASGFTVSSNYMSWVRQAPGKGLEWVSVIYSGGSTYYADSVKGRFTISRDNSKNTLYLQMNSLRAEDTAVYYCARGARPNGQYPYWGQGTLVTVSS VL: DIQLTQSPSFLSASVGDRVTITCRASHGIKSLFSWYQQKPGKAPKLLIYAASTLQTGVPSRFSGSASGTEFTLTISSLQPEDFATYYCLQLDSFPTWTFGQGTKVEIK	30
